List of bioavailability values.
experiment_summary: Pharmacokinetic evaluation experiment in mice (IV and PO)
Assay type: in vivo
run_conditions: mouse, plasma; male ICR mice, PO 30 mg/kg vs IV 5 mg/kg
Reply numerically in %, unit not repeated.

Below: 3 molecules and their reported bioavailability.
>>> result("CNC(=O)c1cc2c(c(F)c1-c1c(Cl)c(F)cc3c1C[C@](c1ccccc1)([C@@H]1CCCN1)O3)OC1CC21 (stereo partly drawn) [Compound 17a]")
52.2
>>> result("NC(=O)c1cc2c(c(F)c1-c1c(Cl)c(F)cc3c1C[C@](c1ccccc1)([C@@H]1CCCN1)O3)CCC2O (stereo partly drawn) [Compound 53a]")
14.4
>>> result("CNC(=O)c1cc2c(c(F)c1-c1c(Cl)c(F)cc3c1C[C@](c1ccccc1)([C@@H]1CC4(CC4)CN1)O3)OC1CC21 (stereo partly drawn) [Compound 18a]")
27.9

Give the measured bioavailability of CNC(=O)c1cc2c(c(F)c1-c1c(Cl)c(F)cc3c1C[C@](c1ccccc1)([C@@H]1CC4(CC4)CN1)O3)C1CC1O2 (stereo partly drawn) [Compound 16a] . 40.3

Give the measured bioavailability of CNC(=O)c1cc2c(c(F)c1-c1c(Cl)c(F)cc3c1C[C@@](CN[C@H]1CC[C@H](O)CC1)(c1ccccc1)O3)C1CC1O2 (stereo partly drawn) [Compound 13a] . 108

Give the measured bioavailability of CNC(=O)c1cc2c(c(F)c1-c1c(Cl)c(F)cc3c1C[C@](c1ccccc1)([C@@H]1CCCN1)O3)CCC2O (stereo partly drawn) [Compound 41a] . 61.8

Attribution: patent US20240368134A1
